# test system: Potassium-transporting ATPase (Homo sapiens)
# assay details: Antisecretory activity evaluated by the inhibition of 14C -AP uptake in isolated rabbit parietal cells stimulated by dibutyryl cyclic adenosine 3', 5' -monophosphate (dcAMP)
# Format: functional, Oryctolagus cuniculus
# condition: target entry is the homologue from another species
We label by threshold. Values of IC50 strictly beneath 300 nM are MET. Values of 300 nM and up are NOT MET.

Would you please look over these solved cases?
> print(dat)
                               smiles.input  classification
1  CCCCN(CCCC)CCCOc1ccc(-c2nc(-c3ccccc3)sc2C)cc1             MET
2   CCN(CC)CCCOc1ccc(/C=C/c2nc3ccccc3s2)cc1             MET
3  CCCCN(CCCC)CCCOc1ccc(-c2csc(-c3cccnc3)n2)cc1         NOT MET
4  CCCCN(CCCC)CCCCCOc1ccc(-c2csc(-c3ccccc3)n2)cc1         NOT MET
5  C(=C\c1nc2ccccc2o1)/c1ccc(OCCCCCn2ccnc2)cc1             MET

q: I wonder whether `C(=C\c1nc2ccccc2s1)/c1ccc(OCCCCN2CCCC2)cc1` has IC50 below 300 nM. Can you tell?
a: MET

q: Further, for `CCCCN(CCCC)CCCOc1ccc(-c2nc3ccccc3s2)cc1` ?
a: NOT MET

###

# test system: Potassium-transporting ATPase (Homo sapiens)
# assay details: Antisecretory activity evaluated by the inhibition of 14C -AP uptake in isolated rabbit parietal cells stimulated by dibutyryl cyclic adenosine 3', 5' -monophosphate (dcAMP)
# Assay type: functional, Oryctolagus cuniculus
# condition: target entry is the homologue from another species
I'd appreciate it if you marked entries label 1 when IC50 is lower than 300 nM and label 0 when it is not.

q: For `FC(F)(F)c1ccc(-c2nc(-c3ccc(OCCCn4ccnc4)cc3)cs2)cc1` , is the recorded IC50 below the cut-off of 300 nM?
a: label 0

q: Can you handle `c1ccc(-c2nc(-c3ccc(OCCCCn4ccnc4)cc3)cs2)cc1` next?
a: label 0

q: What do you get for `CCN(CC)CCCCOc1ccc(/C=C/c2nc3ccccc3o2)cc1` ?
a: label 1

q: Next entry: `C(=C\c1nc2ccccc2o1)/c1ccc(OCCCn2ccnc2)cc1`
a: label 1

q: Same question, `CCCCN(CCCC)CCCOc1ccc(-c2csc(-c3ccc(C(F)(F)F)cc3)n2)cc1` this time
a: label 0

###

# Test system: Rattus norvegicus
# assay details: Percent inhibition of total acid secretion in pylorus-ligated rats at an id dose of 40 mg/kg
# Assay type: functional
# condition: route intraduodenal
Each entry below carries its reported inhibition in vivo at 40 mg/kg.
API: value field is a number in %; no unit string.

Reference set, count: 5
> print(dat)
                               smiles.input  value
1  CCCCN(CCCC)CCCOc1ccc(-c2nc3ccccc3[nH]2)cc1     24
2   CCN(CC)CCCOc1ccc(/C=C/c2nc3ccccc3s2)cc1     71
3  CCN(CC)CCCOc1ccc(-c2csc(-c3ccccc3)n2)cc1     82
4  CCCN(CCC)CCCOc1ccc(-c2csc(-c3ccccc3)n2)cc1     94
5  C(=C\c1nc2ccccc2o1)/c1ccc(OCCCCN2CCCC2)cc1     24

q: Hello, I am looking for reported inhibition in vivo at 40 mg/kg with Rattus norvegicus for `CCCCN(CCCC)CCCOc1ccc(/C=C/c2nc3ccccc3o2)cc1` . Could you help?
a: 96

q: Thanks! And `CCCN(CCC)CCCCOc1ccc(/C=C/c2nc3ccccc3s2)cc1.Cl.O` ?
a: 93

q: Item: `CCCCN(CCCC)CCCOc1ccc(/C=C/c2nc3cc(C)ccc3o2)cc1`
a: 88

q: Same again, this time with `CCCCN(CCCC)CCCOc1ccc(-c2csc(-c3ccc(C(F)(F)F)cc3)n2)cc1`
a: 40

Provenance of the data: ChEMBL document CHEMBL1124228
